# AC50 per entry
System: CCRF-CEM
Test: cytotoxicity across cancer and normal cell panel, profiling panel, mechanism study for HRAS target identification project, CellTiter-Glo ATP luminescence, multiple timepoints (AID 652139)
Details: Cancer/normal cell panel viability
Records with an inconclusive call do not appear.
QUANTITY_KIND: AC50

COMPOUND	QUANTITY_KIND	MEASURED
COC(=O)c1ccc([C@@H]2c3[nH]c4ccccc4c3C[C@@H](C(=O)OC)N2C(=O)CCl)cc1	AC50	82.8 nM
Cc1onc(C(=O)N2CCN(C(c3ccc(Cl)cc3)c3ccc(Cl)cc3)CC2)c1[N+](=O)[O-]	AC50	207 nM
C#CCCCC(=O)NCCOCCOCCOc1ccc(N(C(=O)CCl)C(C(=O)NCCc2ccccc2)c2cccs2)cc1Cl (stereo not given)	AC50	1340 nM
CC(C)(C)OC(=O)NCCOCCOCCOc1ccc(N(C(=O)CCl)C(C(=O)NCCc2ccccc2)c2cccs2)cc1Cl (stereo not given)	AC50	140 nM
COc1ccc(N(C(=O)CCl)C(C(=O)NCCc2ccccc2)c2cccs2)cc1Cl (stereo not given)	AC50	119 nM
